Parameter 'readout' = MIC; parameter 'system' = Escherichia coli Vogel.
Answers are plain numbers, in µg/mL.

These recorded examples may help you get a feel for the data.
CNn1cc(C(=O)O)c(=O)c2cc(F)c(N3CC[N+](C)([O-])CC3)cc21 [4'-oxide]    16
CNn1cc(C(=O)O)c(=O)c2cc(F)c(N3CCN(C(C)=O)CC3)cc21    15.6

Continue with the compound presented below.
Req: I'm curious: which MIC was measured for C=CCNn1cc(C(=O)O)c(=O)c2cc(F)c(N3CCN(C)CC3)cc21 tested on Escherichia coli Vogel?
Resp: 1

====

For each entry below, report its log10 of MIC value.
- Test system: Pseudomonas aeruginosa MGH-2
- TEST DESCRIPTION: in vitro antibacterial activity, serial dilution (MIC)
- Type: cell-based
- PARTICULARS: MGH2, 18-20 hours static incubation, read-out: Minimal Inhibitory Concentration (MIC)
// do not treat as linear: log10 of MIC, unit µg/mL

CNn1cc(C(=O)O)c(=O)c2cc(F)c(N3CCN(C(C)C)CC3)cc21    0.90
CNn1cc(C(=O)O)c(=O)c2cc(F)c(N3CCN(C(C)=O)CC3)cc21    1.80
Nn1cc(C(=O)O)c(=O)c2cc(F)c(N3CCNCC3)cc21    1.80
CNn1cc(C(=O)O)c(=O)c2cc(F)c(N3CCNCC3)cc21    0.00

Batch request: log10 of MIC per item, same order as input.
1. CNn1cc(C(=O)O)c(=O)c2cc(F)c(N3CCOCC3)cc21
2. CN1CCN(c2cc3c(cc2F)c(=O)c(C(=O)O)cn3N(C)C)CC1
3. CCNn1cc(C(=O)O)c(=O)c2cc(F)c(Cl)cc21

Resp:
[1.19, 0.30, 1.50]

====

- Tested on: Escherichia coli Vogel
- TEST DESCRIPTION: in vivo antibacterial activity in mice infected with E. coli (PD50)
- Design: species or system mouse (female) infected with Escherichia coli
- PARTICULARS: sc, 168 h, mouse, E. coli, s.c., once one-half hour post infection, 7 days, read-out: Protective Dose (PD50)
READOUT: ED50 (mg/kg)
Numbers only, in mg/kg.

Batch request: ED50 per item, same order as input.
1. CNn1cc(C(=O)O)c(=O)c2cc(F)c(N3CCC(O)CC3)cc21 [Example 17]
2. CCOC(=O)c1cn(NC)c2cc(N3CCN(C)CC3)c(F)cc2c1=O [Example 9]
3. C=CCNn1cc(C(=O)O)c(=O)c2cc(F)c(N3CCN(C)CC3)cc21 [Example 12]
4. CNn1cc(C(=O)O)c(=O)c2cc(F)c(N3CCCC(O)C3)cc21 (centres unmarked) [Example 18]
5. CNn1cc(C(=O)O)c(=O)c2cc(F)c(N3CCN(C(C)=O)CC3)cc21 [Example 14]
6. CN1CCN(c2cc3c(cc2F)c(=O)c(C(=O)O)cn3N)CC1 [Example 3]
7. CCCN1CCN(c2cc3c(cc2F)c(=O)c(C(=O)O)cn3NC)CC1 [Example 11]

Resp:
1. 12.5
2. 4.4
3. 18.9
4. 38
5. 100
6. 3.13
7. 14.8

Batch request: ED50 per item, same order as input.
1. CNn1cc(C(=O)O)c(=O)c2cc(F)c(N3CCCN(C)CC3)cc21 [Example 20]
2. CCN1CCN(c2cc3c(cc2F)c(=O)c(C(=O)O)cn3NC)CC1 [Example 8]

Resp:
1. 3.6
2. 1.4

Batch request: ED50 per item, same order as input.
1. CNn1cc(C(=O)O)c(=O)c2cc(F)c(N3CCN(C(C)C)CC3)cc21 [Example 10]
2. CN1CCN(c2cc3c(cc2F)c(=O)c(C(=O)O)cn3N(C)C)CC1 [Example 7]

Resp:
[2.7, 1.66]

====

- Tested on: Escherichia coli Vogel
- TEST DESCRIPTION: in vivo antibacterial activity in mice infected with E. coli (PD50)
- Parameters: species or system mouse (female) infected with Escherichia coli
- PARTICULARS: sc, 168 h, mouse, E. coli, s.c., once one-half hour post infection, 7 days, read-out: Protective Dose (PD50)
READOUT: ED50

CNn1cc(C(=O)O)c(=O)c2cc(F)c(N3CCCCC3)cc21    > 200 mg/kg

Batch request: ED50 per item, same order as input.
1. CNn1cc(C(=O)O)c(=O)c2cc(F)c(N3CCCC3)cc21
2. CNn1cc(C(=O)O)c(=O)c2cc(F)c(N3CCSCC3)cc21

Resp:
1: > 200 mg/kg; 2: > 200 mg/kg

====

- Test system: Pseudomonas aeruginosa MGH-2
- TEST DESCRIPTION: in vitro antibacterial activity, serial dilution (MIC)
- Type: cell-based
- PARTICULARS: MGH2, 18-20 hours static incubation, read-out: Minimal Inhibitory Concentration (MIC)
READOUT: MIC (mg/L)
One number for each entry, in mg/L.

CCCNn1cc(C(=O)O)c(=O)c2cc(F)c(N3CCN(C)CC3)cc21    31.3
CCN1CCN(c2cc3c(cc2F)c(=O)c(C(=O)O)cn3NC)CC1    2
C=CCNn1cc(C(=O)O)c(=O)c2cc(F)c(N3CCN(C)CC3)cc21    15.6

Continue with the compound presented below.
Req: Fill in the blank: the reported MIC of CNn1cc(C(=O)O)c(=O)c2cc(F)c(N3CCSCC3)cc21 is ____.
Resp: 4
